# MEASUREMENT TARGET: T1, Human CD93 recombinant protein (Sino Biological Inc, Catalog #12589-H08H) (human, UniProt Q9NPY3 22-580)
# T1 construct: Biotinylated (EZ-LINK NHS-PEG4 biotin) in the BLI assays; also called hCD93; His-tagged human CD93
# T1 sequence (looked up): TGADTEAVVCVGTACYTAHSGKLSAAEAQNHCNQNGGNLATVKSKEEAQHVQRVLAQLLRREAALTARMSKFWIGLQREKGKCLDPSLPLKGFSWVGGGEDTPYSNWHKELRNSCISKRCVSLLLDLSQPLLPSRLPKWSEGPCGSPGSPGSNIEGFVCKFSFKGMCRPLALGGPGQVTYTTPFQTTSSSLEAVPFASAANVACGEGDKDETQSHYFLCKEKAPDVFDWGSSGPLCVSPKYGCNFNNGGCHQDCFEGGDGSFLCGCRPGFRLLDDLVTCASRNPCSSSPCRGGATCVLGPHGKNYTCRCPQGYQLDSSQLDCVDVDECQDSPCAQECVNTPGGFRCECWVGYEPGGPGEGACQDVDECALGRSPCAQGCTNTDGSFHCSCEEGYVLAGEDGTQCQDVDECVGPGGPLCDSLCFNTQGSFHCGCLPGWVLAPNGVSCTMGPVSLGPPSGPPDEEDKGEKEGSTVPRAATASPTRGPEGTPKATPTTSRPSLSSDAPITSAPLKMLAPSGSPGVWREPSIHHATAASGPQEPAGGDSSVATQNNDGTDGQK
# PROTOCOL DESCRIPTION: summary table, column Octet (hCD93)
MEASUREMENT TYPE: Kd (nM)
The response must be a number in nM with no trailing unit.

Use the examples below as a reference point.
[[record]]
binder = "h16E4 (humanized 16E4, VH4+VL6) (antibody, V domains shown, Detected with anti-human IgG, so a human Fc) VH: QVQLVQSGAEVKKPGASVKVSCKASGYTFTSYWMHWVRQAPGQGLEWMGEIDPSASYTYYNQKFKGRVTMTRDKSSSTVYMELSSLTSEDSAVYYCARSVYYGNKYFDVWGAGTTVTVSS VL: DIQMTQSPSTLSASVGDRVTITCKASQSVDYAGDSYMNWYQQKPGKAPKLLIYAASNLESGVPSRFSGSGSGTEFTLTISSLQPDDFATYYCQQTNEDPRTFGGGTKLEIK"
number = 0.416

[[record]]
binder = "7F3 (hybridoma) (antibody, IgG1, V domains shown, also called 7F3 mAb; 7F3 mIgG1) VH: QVQLQQSGADLVRPGASVKLSCKASGYTFTDYEMHWVKQTPVYGLEWIGGIDPETGDTAYNQNFKGKATLTADKSSSAAYMELRSLTSEDSAVYYCTNYGNLYYYAMDYWGQGTSVTVSS VL: ENVLTQSPAIMSASPGEKVTMTCRASSSVSSSYLHWYQQKSGASPKLWIYSTSNLAFGVPARFSGSGSGTSYSLTISSVEAEDAATYYCQQYSGYPLTFGSGTKLEIK"
number = 0.493


Okay, now this binder:
-- ask Kd for h7F3 (humanized 7F3, VH3+VL3) (antibody, human IgG1, V domains shown, also called humanized 7F3-hIgG1) VH: QVQLVQSGAEVKKPGASVKVSCKASGYTFTDYEMHWVRQAPGQGLEWMGGIDPETGDTAYNQNFKGRVTMTTDTSTSTAYMELRSLTSDDTAVYYCTNYGNLYYYAMDYWGQGTSVTVSS VL: EIVLTQSPSSLSASVGDRVTITCRASSSVSSSYLHWYQQKPGKAPKLLIYSTSNLAFGVPSRFSGSGSGTSYTFTISSLQPEDIATYYCQQYSGYPLTFGSGTKLEIK ?
-- reply 0.472
